Measured values drawn from patent US20110002929A1 for this set.

- TEST TARGET: T1, human RANK-L (human, UniProt O14788 140-317, limits assumed)
- T1 construct: Soluble protein, used coated, biotinylated or labelled in ELISA, AlphaScreen, FMAT and Biacore; also called hRANK-L; soluble human RANK-L
- T1 sequence (looked up): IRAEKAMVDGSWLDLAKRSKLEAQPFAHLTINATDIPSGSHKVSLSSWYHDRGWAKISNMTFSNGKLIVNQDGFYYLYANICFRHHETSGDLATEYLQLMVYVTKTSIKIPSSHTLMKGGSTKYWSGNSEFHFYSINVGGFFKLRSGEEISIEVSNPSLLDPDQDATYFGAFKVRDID
- ASSAY METHOD TEXT: AlphaScreen, biotin-hRANK-L / RANK-huFc beads
TEST READOUT: IC50

INSERT INTO assay_data (binder, test_readout, result) VALUES
  ('RANKL13 (VHH, not shown: small tags and cut ends) VHH: EVQLVESGGGLVQAGGSLRLSCAASGRTFRSYPMGWFRQAPGKEREFVASITGSGGSTYYADSVKGRFTISRDNAKNTVYLQMNSLRPEDTAVYSCAAYIRPDTYLSRDYRKYDYWGQGTQVTVSS', 'IC50', '174 pM'),
  ('RANKL18hum5 (VHH) VHH: EVQLVESGGGLVQPGGSLRLSCAASGRTFSRSAMGWFRQAPGKGREFVGFITGSGGTTYYGESVKGRFTISRDNAQNPVYLQMNSLRPEDTAVYYCAVYRRTYISSTYSESSEYDYWGQGTLVTVSS', 'IC50', '253 pM'),
  ('RANKL13hum4 (VHH, name in Kabat numbering) VHH: EVQLVESGGGLVQPGGSLRLSCAASGRTFRSYPMGWFRQAPGKGREFVASITGSGGSTYYADSVKGRFTISRDNAKNTLYLQMNSLRPEDTAVYYCAAYIRPDTYLSRDYRKYDYWGQGTLVTVSS', 'IC50', '223 pM'),
  ('RANKL18hum2 (VHH, name in Kabat numbering) VHH: EVQLVESGGGLVQPGGSLRLSCAASGRTFSRSAMGWFRQAPGKGREFVSFITGSGGTTYYGESVKGRFTISRDNAQNPVYLQMNSLRPEDTAVYYCGVYRRTYISSTYSESSEYDYWGQGTLVTVSS', 'IC50', '3190 pM'),
  ('RANKL13hum2 (VHH, name in Kabat numbering) VHH: EVQLVESGGGLVQPGGSLRLSCAASGRTFSSYPMGWFRQAPGKGREFVASITGSGGSTYYADSVKGRFTISRDNAKNTLYLQMNSLRPEDTAVYSCAAYIRPDTYLSRDYRKYDYWGQGTLVTVSS', 'IC50', '191 pM');
